Biological target: human FXa (Homo sapiens, UniProt P00742)
Sequence (P00742 235-488 limits assumed): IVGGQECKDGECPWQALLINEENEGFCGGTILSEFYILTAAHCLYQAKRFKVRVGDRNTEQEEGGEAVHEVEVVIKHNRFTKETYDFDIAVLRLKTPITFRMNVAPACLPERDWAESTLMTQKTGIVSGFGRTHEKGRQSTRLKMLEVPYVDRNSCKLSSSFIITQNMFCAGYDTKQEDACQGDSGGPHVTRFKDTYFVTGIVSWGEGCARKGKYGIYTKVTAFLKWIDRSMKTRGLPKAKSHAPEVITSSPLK
Sequence (P00742 41-179 partner limits assumed): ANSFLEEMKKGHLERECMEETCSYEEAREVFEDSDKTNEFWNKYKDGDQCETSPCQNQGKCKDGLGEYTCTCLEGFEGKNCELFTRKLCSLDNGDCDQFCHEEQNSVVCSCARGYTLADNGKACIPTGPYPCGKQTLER
Test: Determination of related protease inhibition: FXa
Format: biochemical
pIC50: −log10 of the molar value.

| Substance smiles | System name | pIC50 |
| --- | --- | --- |
| Cn1ccc(OCC23CN(C(=O)NC4(c5ccccc5)CC4)C(CNc4cccc5c(N)nccc45)(C2)C3)cc1=O | human FXa (Homo sapiens, UniProt P00742) | 4.40 to 5.00 |

###

Molecular target: Human Factor XIIa (Homo sapiens, UniProt P00748)
Construct: purchased Enzyme Research Laboratories
Sequence (P00748 373-615 limits assumed): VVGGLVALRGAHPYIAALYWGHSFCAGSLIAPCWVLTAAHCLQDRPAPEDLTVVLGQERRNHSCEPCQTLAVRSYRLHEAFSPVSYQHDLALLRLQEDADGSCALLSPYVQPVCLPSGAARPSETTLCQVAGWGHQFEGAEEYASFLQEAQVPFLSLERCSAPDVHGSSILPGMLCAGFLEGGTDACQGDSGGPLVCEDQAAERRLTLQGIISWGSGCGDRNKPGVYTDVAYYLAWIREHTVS
Sequence (P00748 20-372 partner limits assumed): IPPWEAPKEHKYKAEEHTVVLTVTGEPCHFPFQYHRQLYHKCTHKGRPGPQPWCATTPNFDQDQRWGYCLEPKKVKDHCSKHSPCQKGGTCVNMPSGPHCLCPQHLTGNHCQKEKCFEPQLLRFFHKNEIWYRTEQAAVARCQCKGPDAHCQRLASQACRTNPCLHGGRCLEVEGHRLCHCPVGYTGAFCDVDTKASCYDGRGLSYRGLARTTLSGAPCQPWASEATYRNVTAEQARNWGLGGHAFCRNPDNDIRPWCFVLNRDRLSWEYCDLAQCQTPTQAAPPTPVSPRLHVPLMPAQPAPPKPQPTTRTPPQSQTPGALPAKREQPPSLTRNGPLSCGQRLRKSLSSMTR
Assay: Determination of FXIIa inhibition (in vitro IC50 assay, fluorogenic substrate H-DPro-Phe-Arg-AFC)
Format: biochemical
Settings: human Factor XIIa; fluorogenic substrate H-DPro-Phe-Arg-AFC at Km concentration; 5 min, 25 °C; class symbols; read-out: Human FXIIa IC50
pIC50: −log10 of the molar value.
pIC50 overview

| Compound | pIC50 |
| --- | --- |
| Cc1cc(OCC23CN(C4=NCCO4)C(CNc4cccc5c(N)nccc45)(C2)C3)cc(=O)n1C | 7.00 to 8.00 |
| Cc1cc(OCC23CN(C(=O)N4CC5(CCOCC5)C4)C(CNc4cccc5c(N)nccc45)(C2)C3)cc(=O)n1C | 7.00 to 8.00 |
| Cn1ccc(OCC23CN(C(=O)NC4CC5(CCC5)C4)C(CNc4cccc5c(N)nccc45)(C2)C3)cc1=O | 7.00 to 8.00 |
| Cn1ccc(OCC23CN(C(=O)NC4C5CC6CC(C5)CC4C6)C(CNc4cccc5c(N)nccc45)(C2)C3)cc1=O (stereo not shown) | 7.00 to 8.00 |
| COc1cccc(C2CCN(C(=O)N3CC4(COc5cc(C)n(C)c(=O)c5)CC3(CNc3cccc5c(N)nccc35)C4)C2)c1 (stereo not shown) | 7.00 to 8.00 |
| Cc1cc(OCC23CN(C(=O)N4CCC5(CCCC5)C4)C(CNc4cccc5c(N)nccc45)(C2)C3)cc(=O)n1C | 7.00 to 8.00 |
| Cn1ccc(OCC23CN(C(=O)Nc4ccc5c(c4)CCO5)C(CNc4cccc5c(N)nccc45)(C2)C3)cc1=O | 8.00 to 9.00 |
| Nc1nccc2c(NCC34CC(CN5C(=O)CC[C@H]5c5ccccc5)(CO3)C4)cccc12 | 5.00 to 5.52 |
| Cc1cc(OCC23CN(C(=O)N4CCC5(CCOCC5)C4)C(CNc4cccc5c(N)nccc45)(C2)C3)cc(=O)n1C | 7.00 to 8.00 |
| Cn1ccc(OCC23CN(C(=O)N4CCc5ccccc5C4)C(CNc4cccc5c(N)nccc45)(C2)C3)cc1=O | 6.52 to 7.00 |
